This collection of values is drawn from ChEMBL document CHEMBL1145372.

# study_target: UniProt:P14416
# protocol_details: Binding affinity for dopamine D2 receptor
measurement_name: Ki (nM)

The following molecules have reported results that may help.
>  <query_smiles>
CC(C)Oc1ccccc1C1CCN([C@H]2CC[C@@H](NS(=O)(=O)c3ccc(F)c(F)c3)CC2)CC1

>  <readout_value>
79

$$$$
>  <query_smiles>
COc1ccc(S(=O)(=O)N[C@H]2CC[C@H](N3CCC(c4ccccc4OC(C)C)CC3)CC2)cc1OC

>  <readout_value>
55

$$$$
>  <query_smiles>
COc1ccc(Cl)cc1S(=O)(=O)N[C@H]1CC[C@@H](N2CCC(c3ccccc3OC3CC3)CC2)CC1

>  <readout_value>
129

$$$$
>  <query_smiles>
CC(C)Oc1ccccc1C1CCN([C@H]2CC[C@H](NS(=O)(=O)c3ccc(F)c(F)c3)CC2)CC1

>  <readout_value>
79

$$$$
>  <query_smiles>
COc1ccc(S(=O)(=O)N[C@H]2CC[C@H](N3CCC(c4ccccc4OCC(F)(F)F)CC3)CC2)cc1OC

>  <readout_value>
83

$$$$

1 = O=S(=O)(N[C@H]1CC[C@@H](N2CCC(c3ccccc3OCC(F)(F)F)CC2)CC1)c1cc(Cl)ccc1F
2 = O=S(=O)(N[C@H]1CC[C@H](N2CCC(c3ccccc3OC3CC3)CC2)CC1)c1cc(Cl)ccc1F
3 = COc1ccc(S(=O)(=O)N[C@H]2CC[C@H](N3CCC(c4ccccc4OCCF)CC3)CC2)cc1OC
4 = O=S(=O)(N[C@H]1CC[C@H](N2CCC(c3ccccc3OCC(F)(F)F)CC2)CC1)c1cc(Cl)ccc1F
Descending sort on Ki required. # answer = labels listed in requested order
3, 2, 1, 4

P = COc1ccc(S(=O)(=O)N[C@H]2CC[C@@H](N3CCC(c4ccccc4OC4CC4)CC3)CC2)cc1OC
Q = O=S(=O)(N[C@H]1CC[C@H](N2CCC(c3ccccc3OC3CC3)CC2)CC1)c1ccc2c(c1)OCO2
Problem: Given the entries P and Q , determine which has the lower reported Ki. The response must carry the label of the picked entry.
Q
(Q: 71 nM, P: 144 nM)

P = COc1ccc(S(=O)(=O)N[C@H]2CC[C@H](N3CCC(c4ccc(F)cc4OC(C)C)CC3)CC2)cc1OC
Q = COc1ccc(Cl)cc1S(=O)(=O)N[C@H]1CC[C@H](N2CCC(c3ccccc3OC3CC3)CC2)CC1
Could you please tell me which of these two has the higher Ki: P or Q ? The response must carry the label of the picked entry.
Q
(Q: 154 nM, P: 104 nM)

----------
# study_target: D(2) dopamine receptor (Homo sapiens)
# Sequence (P14416 whole entry): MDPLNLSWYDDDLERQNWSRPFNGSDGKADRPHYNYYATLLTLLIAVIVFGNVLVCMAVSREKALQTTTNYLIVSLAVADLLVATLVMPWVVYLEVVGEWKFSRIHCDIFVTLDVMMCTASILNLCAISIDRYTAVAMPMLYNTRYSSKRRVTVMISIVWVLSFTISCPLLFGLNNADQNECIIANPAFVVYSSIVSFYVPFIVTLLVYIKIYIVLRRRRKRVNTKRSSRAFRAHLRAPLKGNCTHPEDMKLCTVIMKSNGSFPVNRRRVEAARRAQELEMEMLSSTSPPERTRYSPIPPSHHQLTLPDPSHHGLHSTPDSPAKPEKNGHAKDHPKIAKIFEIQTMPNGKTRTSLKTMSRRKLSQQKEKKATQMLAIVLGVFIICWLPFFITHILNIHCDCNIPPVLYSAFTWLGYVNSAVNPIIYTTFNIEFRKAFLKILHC
# protocol_details: Binding affinity for dopamine D2 receptor
pKi: −log10 of the molar value.
measurement_name: pKi

I = COc1ccc(S(=O)(=O)N[C@H]2CC[C@@H](N3CCC(c4cc(F)ccc4OC(C)C)CC3)CC2)cc1OC
II = COc1ccc(S(=O)(=O)N[C@H]2CC[C@H](N3CCC(c4cc(F)ccc4OC(C)C)CC3)CC2)cc1OC
Could you please tell me which of these two has the higher pKi: I or II ? The response must carry the label of the picked entry.
II
(II: 7.03, I: 6.75)
